B1: CPEB3 Ribozyme (parent)
chain: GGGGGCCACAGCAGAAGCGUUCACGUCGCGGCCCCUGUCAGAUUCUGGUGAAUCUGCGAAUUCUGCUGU

Variants of: B1
Test: self-cleavage, relative activity (ratio to wild type); higher = more cleavage; co-transcriptional
Listed below: self-cleavage values for each entry.

Here's what some known entries look like.
G17C A59U ... 0.0945
C35G A51C ... 0.426
A59G C63G ... 0.691
U53G U55A ... 0.417
C39G U62A ... 0.788
U20A C66G ... 0.133

Short answer for C24G A52G : self-cleavage was 0.527

Quick note, self-cleavage for A13U G50A landed at 0.776
